B1: CPEB3 Ribozyme (parent)
chain: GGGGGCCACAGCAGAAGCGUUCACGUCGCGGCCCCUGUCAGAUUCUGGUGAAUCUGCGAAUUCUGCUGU

- Variants of: B1
- assay_comment: self-cleavage, relative activity (ratio to wild type); higher = more cleavage; co-transcriptional
quantity_name: self-cleavage

A13G A23C; 0.781
U43G U53A; 0.8
C18U U21A; 0.807
